Molecular target: T1, human SIRP-α v2 D1 domain (human)
T1 construct: also called human v2; human α v2
T1 sequence (chain, as listed by the source limits assumed): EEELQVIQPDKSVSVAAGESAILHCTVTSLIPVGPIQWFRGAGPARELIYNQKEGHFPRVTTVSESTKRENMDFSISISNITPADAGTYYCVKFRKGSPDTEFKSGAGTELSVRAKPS
Experiment: SPR, antibody immobilised on GLC chip
Would you mind telling me the reported Kd of each entry?
The reply must contain the numeric value and, after it, the unit.

INSERT INTO results (binder, value_reported) VALUES
  ('antibody 135 variant wt/mut (antibody, human IgG1, V domains shown, Human IgG1 with L234A/L235A/G237A/N297A; Labels are in the order VL/VH) VH: EVQLVESGGGVVQPGGSLRLSCAASGFSFSIYAVSWVRQAPGKGLEWVSTIGADDTYYADSVKGRFTISRDNSKNTLYLQMNSLRAEDTAVYYCAKDSTVGWSGDFFDYWGQGTLVTVSS VL: EIVLTQSPATLSVSPGERVTFSCRASQNVRSDIAWYQQKPGQAPRLLIYAASSRDTGIPDRFSGSGSGTDFTLTISSLQSEDFGVYYCQQYYDWPPFTFGGGTKVEIK', '0.0197 nM');

Below is a list of binders. For each, state its recorded Kd.
1. antibody 135 wt/wt (parental) (antibody, human IgG1, V domains shown, Human IgG1 with L234A/L235A/G237A/N297A; Labels are in the order VL/VH; also called AB135a) VH: DVQLVESGGGVVRPGESLRLSCAASGFSFSIYAMSWVRQAPGEGLEWVSTIGADDTYYADSVKGRFTISRDNSKNTLYLQMNSLRAEDTAVYYCAKDSTVGWSGDFFDYWGLGTLVTVSS VL: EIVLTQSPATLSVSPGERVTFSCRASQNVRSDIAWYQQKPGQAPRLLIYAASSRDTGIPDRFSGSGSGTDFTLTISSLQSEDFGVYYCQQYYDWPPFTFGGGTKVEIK
2. antibody 135 variant mut/wt (antibody, human IgG1, V domains shown, Human IgG1 with L234A/L235A/G237A/N297A; Labels are in the order VL/VH) VH: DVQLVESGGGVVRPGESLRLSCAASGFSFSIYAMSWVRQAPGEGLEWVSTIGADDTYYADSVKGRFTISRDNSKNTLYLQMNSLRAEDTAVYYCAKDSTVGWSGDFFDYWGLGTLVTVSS VL: EIVLTQSPATLSVSPGERVTLSCRASQNVRSDIAWYQQKPGQAPRLLIYAASSRDTGIPARFSGSGSGTDFTLTISSLQSEDFGVYYCQQYYDWPPFTFGGGTKVEIK
3. antibody 135 variant wt/mut V34M (antibody, human IgG1, V domains shown, Human IgG1 with L234A/L235A/G237A/N297A; Labels are in the order VL/VH) VH: EVQLVESGGGVVQPGGSLRLSCAASGFSFSIYAMSWVRQAPGKGLEWVSTIGADDTYYADSVKGRFTISRDNSKNTLYLQMNSLRAEDTAVYYCAKDSTVGWSGDFFDYWGQGTLVTVSS VL: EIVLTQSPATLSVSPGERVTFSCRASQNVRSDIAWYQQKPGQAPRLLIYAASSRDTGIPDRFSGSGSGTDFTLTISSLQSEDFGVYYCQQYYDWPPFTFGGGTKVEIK

A)
1. 0.029 nM
2. 0.0266 nM
3. 0.0161 nM

Q) Quick check: Kd of antibody 135 variant mut/mut (antibody, human IgG1, V domains shown, Human IgG1 with L234A/L235A/G237A/N297A; Labels are in the order VL/VH) VH: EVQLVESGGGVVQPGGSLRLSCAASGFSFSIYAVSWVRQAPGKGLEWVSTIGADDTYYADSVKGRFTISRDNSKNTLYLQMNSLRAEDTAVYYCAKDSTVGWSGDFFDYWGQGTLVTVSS VL: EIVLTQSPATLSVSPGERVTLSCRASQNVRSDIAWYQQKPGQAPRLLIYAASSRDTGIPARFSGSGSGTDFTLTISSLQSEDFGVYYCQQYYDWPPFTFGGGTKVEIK ?
A) 0.0175 nM
